tested on: AR mRNA; test: Antisense inhibition of human AR in HuVEC cells, single concentration (electroporation, qRT-PCR RTS3559); assay type: cell-based; settings: 500 nM ASO, ~24 h, Table 17
Oligonucleotides are written 5' to 3', each unit as a sugar letter and its base; * is a phosphorothioate linkage, no mark a phosphodiester; rarer units and linkages stand in square brackets, end groups in braces. Plain capitals give the bases only. k = constrained ethyl (cEt); [5mC] = 5-methylcytosine; d = 2'-deoxy (DNA)
Kindly supply the reported % inhibition values for the records listed here.
// units = %; emit number, no label

Prompt line: Record request: % inhibition value, item 583649 (antisense kA*kG*kG*d[5mC]*dT*d[5mC]*dA*d[5mC]*dA*dG*dT*d[5mC]*dT*kG*kT*k[5mC]) [compound 583649]
Response line: 46

Prompt line: Record request: % inhibition value, item 583662 (antisense kA*kG*kA*dA*dG*dA*d[5mC]*dA*d[5mC]*dA*d[5mC]*dG*dG*kT*kG*kG) [compound 583662]
Response line: 51

Prompt line: Record request: % inhibition value, item 583667 (antisense k[5mC]*kG*k[5mC]*dT*d[5mC]*dT*dG*dA*d[5mC]*dA*dG*d[5mC]*d[5mC]*kT*k[5mC]*kA) [compound 583667]
Response line: 42

Prompt line: Record request: % inhibition value, item 583635 (antisense k[5mC]*kT*kG*dG*d[5mC]*dT*d[5mC]*d[5mC]*dG*d[5mC]*dA*d[5mC]*dT*k[5mC]*kG*kG) [compound 583635]
Response line: 50

Prompt line: Record request: % inhibition value, item 583613 (antisense kG*k[5mC]*kA*dA*dT*dG*dT*dG*d[5mC]*dA*dG*d[5mC]*dT*kA*kG*k[5mC]) [compound 583613]
Response line: 51

Prompt line: Record request: % inhibition value, item 583642 (antisense kA*kG*kT*dG*dT*d[5mC]*d[5mC]*dA*d[5mC]*dT*dG*dA*dA*kG*kT*kA) [compound 583642]
Response line: 42
